assay: 9-month stability of dried cannabis drug stored in a vault (not under nitrogen); assay type: physicochemical; set-up: unit not given beside the values; conditions: dried cannabis drug stored in a vault, not under nitrogen; Day 0
Kindly state Analyte content, Nov. 17, 2016 for each of the entries shown.
Please reply with the number alone, leaving off any unit.

Give reported Analyte content, Nov. 17, 2016 value for "C=C(C)[C@@H]1CCC(C)=C[C@H]1c1c(O)cc(CCCCC)c(C(=O)O)c1O"
3.07

Answer with reported Analyte content, Nov. 17, 2016 of "CCCCCc1cc(O)c(C/C=C(\C)CCC=C(C)C)c(O)c1C(=O)O"
0.37

# return recorded Analyte content, Nov. 17, 2016 for entry CCCCCc1cc2c(c(O)c1C(=O)O)[C@@H]1C=C(C)CC[C@H]1C(C)(C)O2 [THCA, tetrahydrocannabinolic acid]
9.68

Provide only the value of recorded Analyte content, Nov. 17, 2016 for CCCCCc1cc(O)c2c(c1)OC(C)(C)[C@@H]1CCC(C)=C[C@@H]21 [THC, tetrahydrocannabinol, reference compound]
0.21

====

Experiment: 9-month stability of dried cannabis drug stored in a vault (not under nitrogen)
Assay type: physicochemical
Conditions: dried cannabis drug stored in a vault, not under nitrogen; 9 months
From the text: A schematic depicting the production of exemplary cannabinoic acids and subsequent transformation to the related neutral form by conditions such as oxidation, heat and time is shown in FIG. 3.
For each record, write down the corresponding Analyte content, Aug. 10, 2017.
Just the number.

Item "CCCCCc1cc(O)c(C/C=C(\C)CCC=C(C)C)c(O)c1" : provide Analyte content, Aug. 10, 2017
0.12

Report Analyte content, Aug. 10, 2017 for "CCCCCc1cc(O)c(C/C=C(\C)CCC=C(C)C)c(O)c1C(=O)O"
0.26

Consider the compound "C=C(C)[C@@H]1CCC(C)=C[C@H]1c1c(O)cc(CCCCC)c(C(=O)O)c1O" . State its measured Analyte content, Aug. 10, 2017.
2.03

Consider the compound CCCCCc1cc2c(c(O)c1C(=O)O)[C@@H]1C=C(C)CC[C@H]1C(C)(C)O2 [THCA, tetrahydrocannabinolic acid] . State its measured Analyte content, Aug. 10, 2017.
6.02

Report Analyte content, Aug. 10, 2017, nothing else, for this compound: CCCCCc1cc(O)c2c(c1)OC(C)(C)[C@@H]1CCC(C)=C[C@@H]21 [THC, tetrahydrocannabinol, reference compound]
1.75

Tell me Analyte content, Aug. 10, 2017 reported for C=C(C)[C@@H]1CCC(C)=C[C@H]1c1c(O)cc(CCCCC)cc1O [CBD, cannabidiol, reference compound]
0.68

====

Provide the reported % Change from Day 0 of each item.
test: 9-month stability of dried cannabis drug stored in a vault (not under nitrogen); assay type: physicochemical; settings: 9-month storage; <0.05 assumed to be 0.05 for calculation
The reply should contain only the number, in %.

Supply recorded % Change from Day 0 for C=C(C)[C@@H]1CCC(C)=C[C@H]1c1c(O)cc(CCCCC)c(C(=O)O)c1O [CBDA, cannabidiolic acid] here.
33.9

Please report % Change from Day 0 for the following compound: CCCCCc1cc(O)c(C/C=C(\C)CCC=C(C)C)c(O)c1 [CBG, cannabigerol]
140

Please list % Change from Day 0 recorded for the compound CCCCCc1cc(O)c2c(c1)OC(C)(C)[C@@H]1CCC(C)=C[C@@H]21 [THC, tetrahydrocannabinol, reference compound]
733

In one line, give reported % Change from Day 0 of the entry C=C(C)[C@@H]1CCC(C)=C[C@H]1c1c(O)cc(CCCCC)cc1O [CBD, cannabidiol, reference compound] .
1260
